Where do the numbers come from? From patent US9890166B2.

target-or-system: nuclear BRD4-NUT foci in HCC2494 NUT midline carcinoma cells (Homo sapiens, UniProt O60885)
method: cell-based
measure: IC50 (nM)

Solved entries:
molecule	endpoint-result
COc1ccc(-c2nc3c(n2C(C)C)C(c2ccc(Cl)cc2)N(c2cc(C)c4nnc(C)n4c2)C3=O)cn1 (stereo not shown) [Example 9]	2090
Cc1cc(N2C(=O)c3nc(C4=CCOCC4)n(C(C)C)c3C2c2ccc(Cl)cc2)cn2c(C)nnc12 (stereo not shown) [Example 14]	40.9
Cc1cc(N2C(=O)c3nc(C4=CCOC4)n(C(C)C)c3C2c2ccc(Cl)cc2)cn2c(C)nnc12 (stereo not shown) [Example 11]	110
Cc1cc(N2C(=O)c3nc(C)n(C(C)C)c3C2c2ccc(Cl)cc2)nn2c(C)nnc12 (racemic) [Example 18]	7.55
Cc1cc(N2C(=O)c3nc(C4CC4)n(C)c3C2c2ccc(Cl)cc2)cn2c(C)nnc12 (stereo not shown) [Example 57]	91.2

[1] COc1ccc(-c2nc3c(n2C)C(c2ccc(Cl)cc2)N(c2cc(OC)c4nnc(C)n4c2)C3=O)cn1 (stereo not shown) [Example 55]
[2] COc1cc(N2C(=O)c3nc(C4CC4)n(C)c3C2c2ccc(Cl)cc2)cn2c(C)nnc12 (stereo not shown) [Example 56]
[3] CCn1c(-c2ccc(OC)nc2)nc2c1C(=O)N(c1cc(C)c(=O)n(C)c1)C2c1ccc(Cl)cc1 (stereo not shown) [Example 38]
**Q:** Rank entries according to their IC50, from the largest number down. Give the order by naming the labels one after another as requested.
**A:** 1, 2, 3

[P] CCn1c(C)nc2c1C(=O)N(c1cc(C)c3nnn(C)c3c1)C2c1ccc(Cl)cc1 (stereo not shown) [Example 121]
[Q] COc1ncccc1-c1nc2c(n1C(C)C)C(=O)N(c1cc(C)c(=O)n(C)c1)[C@@H]2c1ccc(Cl)cc1 [Example 45]
**Q:** Hey, which is lower on measured IC50, P or Q ? Answer by quoting the chosen item's label.
**A:** P
